Where do these numbers come from? They come from patent US20060069132A1.

- Tested on: large crabgrass
- assayOverview: Test B pre-/postemergence herbicide test
- Type: in vivo, Digitaria sanguinalis
- experimentalConditions: postemergence, 125 g ai/ha; visual rating, scale 0 (no effect) to 100 (complete control)
Below is a list of entries, each paired with its recorded Crabgrass, Large plant response rating value.
# output: bare number, no unit

Some solved entries appear below for comparison.
CC(=O)c1cc(NC(=O)c2cc(C(C)(C)C)nn2C)ccc1F	0
CCn1nc(C(C)(C)C)cc1C(=O)Nc1cccc(C(=O)OCC2CC2)c1C	10
CCn1nc(C(C)(C)C)cc1C(=O)Nc1cccc(C(=O)NOC)c1	10
Cc1nc(C(C)(C)C)sc1C(=O)Nc1cccc(C(=O)NCC(F)(F)F)c1	0

Need Crabgrass, Large plant response rating of CCCn1nc(C(C)(C)C)cc1C(=O)Nc1cccc(C(=O)NCC)c1 , thanks. 10

---

- Tested on: lambsquarters
- assayOverview: Test B pre-/postemergence herbicide test
- Assay type: in vivo, Chenopodium album
- experimentalConditions: 125 g ai/ha; visual rating, scale 0 (no effect) to 100 (complete control); postemergence
Kind request: treat 60 as inclusive, so Lambsquarters plant response rating at 60 or higher is Yes, anything lower is No.

Field: example entries. Status: answers known.
CCn1nc(C(C)(C)C)cc1C(=O)Nc1cncc(C(=O)NCC(F)(F)F)n1 [Compound 291]	No
CCn1nc(C(C)(C)C)cc1C(=O)Nc1cccc(OC(F)(F)C(F)F)c1 [Compound 333]	Yes
CCc1nn(C(C)(C)C)nc1C(=O)Nc1cc(C(=O)N2CCCCC2)ccc1F [Compound 381]	Yes
CCC1=NN(C(C)(C)C)CC1C(=O)Nc1cc(C(=O)N2CCCC2)ccc1F (racemic) [Compound 341]	No
COC(=O)c1ccc(F)c(NC(=O)c2nn(C(C)C)nc2C)c1 [Compound 398]	No

Exam item: decide whether the reported Lambsquarters plant response rating for CCc1nn(C(C)C)nc1C(=O)Nc1cccc(C(=O)N2CC=CC2)c1 [Compound 359] is at least 60. No

Exam item: decide whether the reported Lambsquarters plant response rating for CCc1nn(C(C)(C)CC)nc1C(=O)Nc1cccc(C(=O)N2CC=CC2)c1 [Compound 369] is at least 60. No

Exam item: decide whether the reported Lambsquarters plant response rating for CCNC(=O)c1ccc(F)c(N(C(C)=O)C(=O)c2cc(C(C)(C)C)nn2CC)c1 [Compound 399] is at least 60. Yes

Exam item: decide whether the reported Lambsquarters plant response rating for CCOC(=O)c1ccc(F)c(NC(=O)c2cc(C3(C)CC3)nn2CC)c1 [Compound 296] is at least 60. No

---

- Tested on: morningglory
- assayOverview: Test A pre-/postemergence herbicide test
- Format: in vivo, Ipomoea spp.
- experimentalConditions: Preemergence, 500 g ai/ha; visual rating, 0 to 100 scale (0 no effect, 100 complete control)
measuredParameter: Morningglory plant response rating
# output: bare number, no unit

Some solved entries appear below for comparison.
CCCCn1nc(C(C)(C)C)cc1C(=O)Nc1cccc(C(=O)NCC)c1	20
CC(=NO)c1ccnc(NC(=O)c2cc(C(C)(C)C)nn2C)n1	0
CC(=NO)c1cccc(NC(=O)c2cc(C(C)(C)C)nn2CC(F)(F)F)c1	20
C=CCn1nc(C(C)(C)C)cc1C(=O)Nc1cccc(C(C)=NO)c1	45
C=CCOC(=O)c1cccc(NC(=O)c2cc(C(C)(C)C)nn2CC)c1	0
CCn1nc(C(C)(C)C)cc1C(=O)Nc1cccc2c1CNC2=O	0

Need Morningglory plant response rating of C#CCOC(=O)c1cccc(NC(=O)c2cc(C(C)(C)C)nn2CC)c1 , thanks. 0

---

Below is a list of entries, each paired with its recorded Wheat plant response rating value.
- System: wheat
- assayOverview: Test B postemergence herbicide test
- Format: in vivo, Triticum aestivum
- Design: key: 0 = no effect, 100 = complete control
- experimentalConditions: postemergence, 125 g ai/ha; visual rating, scale 0 (no effect) to 100 (complete control)
# output: bare number, no unit

C=CCn1nc(C(C)(C)C)cc1C(=O)Nc1cccc(C(C)=NO)c1 [Compound 117]	10
CCCn1nc(C(C)(C)C)cc1C(=O)Nc1cccc(C(=O)NCC)c1 [Compound 57]	10
CC(=O)c1cccc(NC(=O)c2cn(C(C)C)nc2C)c1 [Compound 179]	0
CCn1nc(C(C)(C)C)cc1C(=O)Nc1cccc2c1CNC2=O [Compound 52]	0
CCn1nc(C(C)(C)C)cc1C(=O)Nc1nc(C(=O)N(C)C)ccc1F [Compound 277]	20
CCn1nc(C(C)(C)C)cc1C(=O)Nc1cccc(C(=O)OC)c1C [Compound 87]	0
CCn1nc(C(C)(C)C)cc1C(=O)Nc1cc(C(=O)N2CCCC2)ccc1F [Compound 242]	10
CCN(CC)C(=O)c1cccc(NC(=O)c2cn(C(C)(C)C)nc2C)c1 [Compound 184]	0

Please examine the following record next.
Need Wheat plant response rating of CCn1nc(C(C)(C)C)cc1C(=O)Nc1cccc(OC(F)(F)F)c1 [Compound 272] , thanks. 20

---

- System: barnyardgrass
- assayOverview: Test C flooded paddy test
- Format: in vivo, Echinochloa crus-galli
- experimentalConditions: 250 g ai/ha, scale of 0 to 100, 0 is no effect, 100 is complete control
measuredParameter: Barnyardgrass plant response rating

CCn1nc(C(C)(C)C)cc1C(=O)Nc1cc(C(=O)OC)c(OC)cc1F [Compound 75]	65
C#CCOc1cccc(NC(=O)c2cc(C(C)(C)C)nn2CC)c1 [Compound 411]	40

Please examine the following record next.
Need Barnyardgrass plant response rating of CCn1nc(C(C)(C)C)cc1C(=O)Nc1cccc(C(=O)NOC)c1 [Compound 67] , thanks. 10

---

- System: rice
- assayOverview: Test C flooded paddy test
- Type: in vivo, Oryza sativa
- experimentalConditions: 250 g ai/ha, scale of 0 to 100, 0 is no effect, 100 is complete control
measuredParameter: Rice plant response rating

CCC1=NN(C(C)(C)C)CC1C(=O)Nc1cc(C(=O)N2CCCC2)ccc1F (racemic)	60
CCc1nn(C(C)(C)CC)nc1C(=O)Nc1cccc(C(=O)N2CC=CC2)c1	60
CCc1nn(C(C)(C)C)cc1C(=O)Nc1cccc(C(C)=NO)c1	65

Please examine the following record next.
Need Rice plant response rating of CCC1=NN(C(C)(C)C)CC1C(=O)Nc1cc(C(=O)N2CC=CC2)ccc1F (racemic) , thanks. 70

---

Below is a list of entries, each paired with its recorded Plant response rating, Nutsedge, Yellow value.
- Test system: yellow nutsedge
- assayOverview: Test C pre-/postemergence herbicide test
- Format: in vivo, Cyperus esculentus
- experimentalConditions: 500 g ai/ha; scale 0 to 100 (0 no effect, 100 complete control); visual, 12 to 14 days; preemergence
- Source text: […]
# output: bare number, no unit

CCn1nc(C(C)(C)C)cc1C(=O)Nc1cc(C(=O)N2CCCC2)ccc1F	25

Need Plant response rating, Nutsedge, Yellow of CCc1nn(C(C)(C)CC)nc1C(=O)Nc1cccc(C(=O)N(C)C)c1 , thanks. 85

Need Plant response rating, Nutsedge, Yellow of CCn1nc(C(C)(C)C)cc1C(=O)Nc1cccc(OC(F)(F)C(F)F)c1 , thanks. 0

---

- Tested on: redroot pigweed
- assayOverview: Test A pre-/postemergence herbicide test
- Format: in vivo, Amaranthus retroflexus
- experimentalConditions: Preemergence, 2000 g ai/ha; visual rating, 0 to 100 scale (0 no effect, 100 complete control)
Below is a list of entries, each paired with its recorded Pigweed plant response rating value.
# output: bare number, no unit

CCc1nc(C(C)(C)C)sc1C(=O)Nc1cccc(C(=O)NCC2CC2)n1 [Compound 215]	85
CCn1nc(C(C)(C)C)cc1C(=O)Nc1cccc(OC(C)C)c1 [Compound 273]	100
CCNC(=O)c1cc(C)cc(NC(=O)c2cc(C(C)(C)C)nn2CC)n1 [Compound 150]	100
CC(=O)c1cc(NC(=O)c2cc(C(C)(C)C)nn2C)ccc1F [Compound 123]	0
CCn1nc(C(C)(C)C)cc1C(=O)Nc1cccc(C(C)=NO)c1 [Compound 108]	100
C#CCNC(=O)c1cccc(NC(=O)c2sc(C(C)(C)C)nc2C)c1 [Compound 203]	90

Need Pigweed plant response rating of CC(=NO)c1cccc(NC(=O)c2cc(C(C)(C)C)nn2C)c1 [Compound 102] , thanks. 90

Need Pigweed plant response rating of CCn1nc(C(C)(C)C)cc1C(=O)Nc1cc(C(N)=O)ccc1F [Compound 271] , thanks. 60

Need Pigweed plant response rating of CCn1nc(C(C)(C)C)cc1C(=O)Nc1ccnc(C(=O)NCCF)c1 [Compound 284] , thanks. 100

Need Pigweed plant response rating of CCn1nc(C(C)(C)C)cc1C(=O)Nc1nccc(OC)n1 [Compound 165] , thanks. 20

Need Pigweed plant response rating of CC(=O)c1cccc(NC(=O)c2cn(C(C)C)nc2C)c1 [Compound 179] , thanks. 35

Need Pigweed plant response rating of CC(=NO)c1cccc(NC(=O)c2cc(C(C)(C)C)nn2CC(F)(F)F)c1 [Compound 112] , thanks. 90

Need Pigweed plant response rating of COC(=O)c1cccc(NC(=O)c2cc(C(C)(C)C)nn2C)n1 [Compound 312] , thanks. 0

Need Pigweed plant response rating of CCc1nn(C(C)(C)C)nc1C(=O)Nc1cccc(C(=O)NC2CC2)c1 [Compound 417] , thanks. 100

Need Pigweed plant response rating of CCn1nc(C(C)(C)C)cc1C(=O)Nc1cncc(C(=O)N(C)C)n1 [Compound 287] , thanks. 100
